Kindly supply the reported GI50 values for the records listed here.
Test system: SNB-78
Assay: NCI tumour cell line growth inhibition, 48 h
Active and inactive are the calls of the source. No stated cut-off is given here; in the data, active = GI50 up to about 1.1 µM and inactive = higher.

In: Which GI50 value belongs to `CC(C)=CC(=O)CC(=O)C(=O)NCCNC(=O)C(=O)CC(=O)C=C(C)C` ?
Out: > 50 µM (inactive)

In: Also `C=CCSC[C@H](NC(=O)COc1ccccc1)C(=O)NC(C(=O)OCc1ccc([N+](=O)[O-])cc1)=C(C)C` ?
Out: 63.2 µM (inactive)

In: Also CCCC(=O)C(CC)/C(CCC(=O)N(Cc1ccccc1)Cc1ccccc1)=N/NC(=O)C[N+](C)(C)C (stereo not given) ?
Out: > 100 µM (inactive)

In: Also Cc1ccc(NC(=O)C(=O)C(C2C(C)CC(=O)C2CC(=O)O)[N+](=O)[O-])cc1 (stereo not given) ?
Out: > 100 µM (inactive)

In: Also COC(=O)/C(C#N)=C1\CCC(O)N1 (stereo not given) ?
Out: > 100 µM (inactive)
